target: BRD4 BD1 protein (Homo sapiens (Human)); assay: Fluorescence polarization binding affinity (Ki) with BRD4 BD1 protein; settings: fluorescence polarization; Ki calculated from IC50
Where a name gives a salt, the structure may show the parent alone.
Threshold-based label: Ki under 400 nM gives 1.0, Ki not under 400 nM gives 0.0.

Study these solved cases before continuing.
COMPOUND	TARGET UNDER TEST	ASSIGNED LABEL
CNC(=O)Cc1ccc(NC2CCn3nnc(C)c3-c3ccc(-c4cnn(C)c4)cc32)cc1 (centres unmarked) [LB142]	BRD4 BD1 protein (Homo sapiens (Human))	1.0
Cc1nnn2c1-c1ccc(C3=CCNC3)cc1C(Nc1cccc(Cl)c1)CC2 (centres unmarked) [BJ179, 2,2,2-trifluoroacetate]	BRD4 BD1 protein (Homo sapiens (Human))	0.0
Cc1nnn2c1-c1ccc(C3=CCN(C(C)C)CC3)cc1C(Nc1ccc(Cl)cc1)CC2 (centres unmarked) [LD24, 2,2,2-trifluoroacetate]	BRD4 BD1 protein (Homo sapiens (Human))	1.0
Cc1nnn2c1-c1ccc(-c3ccnc4[nH]ccc34)cc1C(Nc1ccc(Cl)cc1)CC2 (centres unmarked)	BRD4 BD1 protein (Homo sapiens (Human))	1.0
Cc1nnn2c1-c1ccc(-c3cnn(C)c3)cc1C(Nc1ccc3ncccc3c1)CC2 (centres unmarked)	BRD4 BD1 protein (Homo sapiens (Human))	1.0

In plain terms, does CCCN1CC=C(c2ccc3c(c2)C(Nc2cccc(Cl)c2)CCn2nnc(C)c2-3)CC1 (centres unmarked) [BH120, 2,2,2-trifluoroacetate] come in under 400 nM for Ki?
0.0

In plain terms, does Cc1nnn2c1-c1ccc(C3=CCN(C(C)C)CC3)cc1C(Nc1cc(Cl)ccc1F)CC2 (centres unmarked) [BI68, 2,2,2-trifluoroacetate] come in under 400 nM for Ki?
0.0

In plain terms, does Cc1nnn2c1-c1ccc(C3CCNCC3)cc1C(Nc1ccc(Cl)cc1)CC2 (centres unmarked) [BF169, hydrochloride] come in under 400 nM for Ki?
0.0

###

molecular target: BRD4 BD2 protein (Homo sapiens (Human)); test: Fluorescence polarization binding affinity (Ki) with BRD4 BD2 protein; conditions: fluorescence polarization; Ki calculated from IC50
READOUT KIND: Ki (nM)
The reply should contain only the number, in nM.

See these solved cases before continuing.
COMPOUND	READOUT KIND	MEASURED VALUE
Cc1nnn2c1-c1ccc(-c3ccnc4[nH]ccc34)cc1C(Nc1ccc(Cl)cc1)CC2 (stereo not drawn)	Ki	24.7
Cc1noc2c1-c1ccc(-c3cnn(C)c3)cc1C(Nc1ccc(Cl)cc1)CC2 (stereo not drawn)	Ki	25.5

Kindly review the next compound as well.
# input compound: Cc1nnn2c1-c1ccc(-c3cnn(C)c3)cc1C(Nc1ccccc1CCO)CC2 (stereo not drawn) ; wanted: its Ki
21.4

###

target: BRD4 BD2 protein (Homo sapiens (Human)); assay: Fluorescence polarization binding affinity (Ki) with BRD4 BD2 protein; details: fluorescence polarization; Ki calculated from IC50
READOUT KIND: Ki (nM)
The reply should contain only the number, in nM.

See these solved cases before continuing.
COMPOUND	Ki (nM)
Cc1nnn2c1-c1ccc(C3=CCN(C)CC3)cc1C(Oc1cccc(Cl)c1)CC2 (stereo not shown) [BH43, 2,2,2-trifluoroacetate]	316
CNC(=O)Cc1cccc(NC2CCn3nnc(C)c3-c3ccc(C4=CCNCC4)cc32)c1 (stereo not shown) [LC131, 2,2,2-trifluoroacetate]	86.3
Cc1nnn2c1-c1ccc(-c3cnn(C)c3)cc1C(Nc1ccc(CC(=O)O)cc1)CC2 (stereo not shown) [LB36]	42.5

Kindly review the next compound as well.
Enter reported Ki observed with BRD4 BD2 protein (Homo sapiens (Human)) for CC(=O)N1CC=C(c2ccc3c(c2)C(Nc2cc(Cl)ccc2F)CCn2nnc(C)c2-3)CC1 (stereo not shown) [BH192]
3.45

###

Let's look at some molecules and their measured pKi.
target: BRD4 BD1 protein (Homo sapiens (Human), UniProt O60885); assay: Fluorescence polarization binding affinity (Ki) with BRD4 BD1 protein; details: fluorescence polarization; Ki calculated from IC50
pKi field: float, defined as -log10 of concentration (mol/L).

See these solved cases before continuing.
MOLECULE	pKi
Cc1nnn2c1-c1ccc(C3=CCNCC3)cc1C(Nc1cc(F)cc(Cl)c1)CC2 (stereo not shown) [BH06, 2,2,2-trifluoroacetate]	6.22
Cc1nnn2c1-c1ccc(C3=CCNCC3)cc1C(Nc1ccc(OCCO)cc1)CC2 (stereo not shown) [LC133, 2,2,2-trifluoroacetate]	5.66

Kindly review the next molecule as well.
# input molecule: Cc1nnn2c1-c1ccc(C3=CCNCC3)cc1C(Nc1cccc(Cl)c1)CC2 (stereo not shown) [LC79, 2,2,2-trifluoroacetate] ; wanted: its pKi
6.19

###

molecular target: BRD4 BD2 protein (Homo sapiens (Human), UniProt O60885); test: Fluorescence polarization binding affinity (Ki) with BRD4 BD2 protein; settings: fluorescence polarization; Ki calculated from IC50
Counter-ions that a name gives are not always drawn.
Threshold-based label: Ki under 40 nM gives YES, Ki not under 40 nM gives NO.

Study these solved cases before continuing.
COMPOUND	TARGET UNDER TEST	ASSIGNED LABEL
Cc1nnn2c1-c1ccc(-c3cnn(C)c3)cc1C(Nc1cccc(O)c1)CC2 (centres unmarked) [LB171]	BRD4 BD2 protein (Homo sapiens (Human), UniProt O60885)	YES
Cc1nnn2c1-c1ccc(C3=CCNCC3)cc1C(Nc1ccccc1Cl)CC2 (centres unmarked) [LC84, 2,2,2-trifluoroacetate]	BRD4 BD2 protein (Homo sapiens (Human), UniProt O60885)	YES
Cc1nnn2c1-c1ccc(-c3ccc(N)nc3)cc1C(Nc1ccc(Cl)cc1)CC2 (centres unmarked) [RB03]	BRD4 BD2 protein (Homo sapiens (Human), UniProt O60885)	YES
Cc1nnn2c1-c1ccc(C3=CCN(C4CCCCC4)CC3)cc1C(Nc1cccc(C#N)c1)CC2 (centres unmarked) [BI29, 2,2,2-trifluoroacetate]	BRD4 BD2 protein (Homo sapiens (Human), UniProt O60885)	NO
Cc1nnn2c1-c1ccc(C3=CCN(C(C)C)CC3)cc1C(Nc1cccc(Cl)c1F)CC2 (centres unmarked) [RE29, 2,2,2-trifluoroacetate]	BRD4 BD2 protein (Homo sapiens (Human), UniProt O60885)	NO

In plain terms, does Cc1nnn2c1-c1ccc(C3=CCNCC3)cc1C(Nc1ccccc1O)CC2 (centres unmarked) [LC127, 2,2,2-trifluoroacetate] come in under 40 nM for Ki?
NO

In plain terms, does Cc1nnn2c1-c1ccc(-c3cnn(C)c3)cc1C(Nc1ccccc1C#N)CC2 (centres unmarked) [LC136] come in under 40 nM for Ki?
YES

In plain terms, does Cc1nnn2c1-c1ccc(C3=CCNCC3)cc1C(Nc1ccc(Cl)cc1)CC2 (centres unmarked) [RB99, hydrochloride] come in under 40 nM for Ki?
YES

###

biological target: BRD4 BD1 protein (Homo sapiens (Human), UniProt O60885); test: Fluorescence polarization binding affinity (Ki) with BRD4 BD1 protein; details: fluorescence polarization; Ki calculated from IC50
READOUT KIND: pKi
pKi field: float, defined as -log10 of concentration (mol/L).

See these solved cases before continuing.
COMPOUND	MEASURED VALUE
Cc1nnn2c1-c1ccc(-c3cnn(C)c3)cc1C(Nc1ccccc1C(=O)O)CC2 (stereo not shown)	6.75
Cc1nnn2c1-c1ccc(-c3cccnc3)cc1C(Nc1ccc(Cl)cc1)CC2 (stereo not shown)	7.28
Cc1nnn2c1-c1ccc(-c3cnn(C)c3)cc1C(Nc1cccc3ncccc13)CC2 (stereo not shown)	7.25
Cc1nnn2c1-c1ccc(-c3ccc(N)nc3)cc1C(Nc1ccc(Cl)cc1)CC2 (stereo not shown)	7.43
Cc1nnn2c1-c1ccc(C3=CCN(C(C)C)CC3)cc1[C@@H](Nc1cccc(Cl)c1)CC2 [RE10 (S), 2,2,2-trifluoroacetate]	6.05

# input compound: Cc1nnn2c1-c1ccc(-c3cnn(C)c3)cc1C(Nc1ccc(CC(=O)O)cc1)CC2 (stereo not shown) ; wanted: its pKi
7.01

# input compound: CCN1CCC(c2ccc3c(c2)C(Nc2cccc(Cl)c2)CCn2nnc(C)c2-3)CC1 (stereo not shown) [RD142, 2,2,2-trifluoroacetate] ; wanted: its pKi
5.36

# input compound: Cc1nnn2c1-c1ccc(-c3cnn(C)c3)cc1C(Nc1ccc(CCN(C)C)cc1)CC2 (stereo not shown) ; wanted: its pKi
6.91

# input compound: CNC(=O)Cc1cccc(NC2CCn3nnc(C)c3-c3ccc(C4=CCNCC4)cc32)c1 (stereo not shown) [LC131, 2,2,2-trifluoroacetate] ; wanted: its pKi
6.08

# input compound: Cc1nnn2c1-c1ccc(-c3cnn(C)c3)cc1[C@H](Nc1ccc(Cl)cc1)CC2 ; wanted: its pKi
8.38

# input compound: Cc1nnn2c1-c1ccc(-c3cnn(C)c3)cc1C(Nc1ccc3cccnc3c1)CC2 (stereo not shown) ; wanted: its pKi
6.37

# input compound: COC(=O)Cc1cccc(NC2CCn3nnc(C)c3-c3ccc(-c4cnn(C)c4)cc32)c1 (stereo not shown) ; wanted: its pKi
7.11

# input compound: CCN1CC=C(c2ccc3c(c2)C(Nc2cccc(C#N)c2)CCn2nnc(C)c2-3)CC1 (stereo not shown) [BI37, 2,2,2-trifluoroacetate] ; wanted: its pKi
5.59

# input compound: Cc1nnn2c1-c1ccc(C3=CCNCC3)cc1C(Nc1ccc(F)cc1)CC2 (stereo not shown) [BJ122, 2,2,2-trifluoroacetate] ; wanted: its pKi
6.12

# input compound: Cc1nnn2c1-c1ccc(-c3cnc4[nH]cnc4c3)cc1C(Nc1ccc(Cl)cc1)CC2 (stereo not shown) ; wanted: its pKi
7.34

# input compound: Cc1nnn2c1-c1ccc(C3=CCN(C(C)C)CC3)cc1C(Nc1ccc(F)c(Cl)c1)CC2 (stereo not shown) [BI24, 2,2,2-trifluoroacetate] ; wanted: its pKi
5.27
